Assign IC50 to each entry below.
molecular target: Integrin alpha-IIb/beta-3 (Homo sapiens, UniProt P05106+P08514); experiment: Inhibition of FG binding to alpha IIb beta-3 integrin
Sequence (P05106 27-788 limits assumed): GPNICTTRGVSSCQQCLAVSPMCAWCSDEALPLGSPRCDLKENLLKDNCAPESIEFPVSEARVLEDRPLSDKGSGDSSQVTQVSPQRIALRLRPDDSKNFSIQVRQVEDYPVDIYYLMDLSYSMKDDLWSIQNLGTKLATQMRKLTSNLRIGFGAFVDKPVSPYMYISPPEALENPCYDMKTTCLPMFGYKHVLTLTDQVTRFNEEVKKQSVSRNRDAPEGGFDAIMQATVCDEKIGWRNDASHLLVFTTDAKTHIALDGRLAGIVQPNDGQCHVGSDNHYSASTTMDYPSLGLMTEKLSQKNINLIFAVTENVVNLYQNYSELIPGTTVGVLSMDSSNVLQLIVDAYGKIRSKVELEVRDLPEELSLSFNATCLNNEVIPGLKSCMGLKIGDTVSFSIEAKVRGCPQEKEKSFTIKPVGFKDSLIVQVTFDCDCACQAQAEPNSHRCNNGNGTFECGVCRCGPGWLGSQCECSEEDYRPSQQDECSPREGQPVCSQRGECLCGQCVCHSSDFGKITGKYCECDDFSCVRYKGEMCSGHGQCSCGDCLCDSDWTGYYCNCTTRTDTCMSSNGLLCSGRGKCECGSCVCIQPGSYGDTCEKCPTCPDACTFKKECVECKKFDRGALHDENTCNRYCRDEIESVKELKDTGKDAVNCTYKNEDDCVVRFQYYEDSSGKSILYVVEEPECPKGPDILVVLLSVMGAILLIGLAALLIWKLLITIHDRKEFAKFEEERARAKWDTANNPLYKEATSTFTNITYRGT
Sequence (P08514 32-887 limits assumed): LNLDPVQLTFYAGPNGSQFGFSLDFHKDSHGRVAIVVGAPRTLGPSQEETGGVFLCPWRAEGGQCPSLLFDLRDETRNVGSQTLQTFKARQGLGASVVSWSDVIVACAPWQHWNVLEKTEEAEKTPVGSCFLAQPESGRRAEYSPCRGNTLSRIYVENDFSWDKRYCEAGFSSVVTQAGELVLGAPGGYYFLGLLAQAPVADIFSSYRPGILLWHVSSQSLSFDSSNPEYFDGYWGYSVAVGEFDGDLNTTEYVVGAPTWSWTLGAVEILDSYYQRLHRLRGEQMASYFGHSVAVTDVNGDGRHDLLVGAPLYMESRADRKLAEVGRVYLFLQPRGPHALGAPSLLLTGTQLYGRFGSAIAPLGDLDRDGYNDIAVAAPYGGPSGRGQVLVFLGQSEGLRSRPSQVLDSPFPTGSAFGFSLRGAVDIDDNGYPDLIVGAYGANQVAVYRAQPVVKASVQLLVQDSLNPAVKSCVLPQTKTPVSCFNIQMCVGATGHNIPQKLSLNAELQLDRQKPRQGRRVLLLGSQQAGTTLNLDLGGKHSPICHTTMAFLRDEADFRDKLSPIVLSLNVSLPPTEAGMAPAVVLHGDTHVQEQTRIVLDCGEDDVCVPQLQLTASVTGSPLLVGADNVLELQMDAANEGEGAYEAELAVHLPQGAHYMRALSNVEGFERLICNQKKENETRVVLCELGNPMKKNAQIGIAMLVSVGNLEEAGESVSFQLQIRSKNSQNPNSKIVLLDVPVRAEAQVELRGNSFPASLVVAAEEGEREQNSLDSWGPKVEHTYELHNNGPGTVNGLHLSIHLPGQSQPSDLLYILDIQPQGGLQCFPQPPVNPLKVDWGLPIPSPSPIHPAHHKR
Sequence (P08514 891-1039 limits assumed): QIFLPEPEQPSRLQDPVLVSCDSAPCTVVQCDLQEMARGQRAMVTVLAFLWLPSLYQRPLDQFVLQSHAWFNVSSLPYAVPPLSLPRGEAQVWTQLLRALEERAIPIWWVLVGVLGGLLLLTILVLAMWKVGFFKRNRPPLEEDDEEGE
Answers are plain numbers, in nM.

Sample records with IC50:
- Smi: "N=C(N)c1ccc(C(=O)N[C@@H](Cc2ccc(O)cc2)C(=O)N2CCC(OCC(=O)O)CC2)cc1"
  IC50 (nM): 1.4
- Smi: "C[C@H](NC(=O)c1ccc(C(=N)N)cc1)C(=O)N1CCC(OCC(=O)O)CC1"
  IC50 (nM): 1.9

# evaluate next
Incoming: For the record CN(CC(=O)c1ccc(OCC(=O)O)c(OCC(=O)O)c1)C(=O)c1ccc(C(=N)N)cc1 , what value of IC50 is listed for Integrin alpha-IIb/beta-3 (Homo sapiens, UniProt P05106+P08514)?
Outgoing: 0.4

----------
target: Integrin alpha-IIb/beta-3 (Homo sapiens, UniProt P05106+P08514); assay: Inhibition of FG binding to alpha IIb beta-3 integrin
Assign IC50 to each entry below.
One number for each entry, in nM.

- Smi: "C[C@H](NC(=O)c1ccc(C(=N)NO)cc1)C(=O)N1CCC(OCC(=O)O)CC1"
  IC50 (nM): 594
- Smi: "CC(C)OC(=O)COc1ccc(C(=O)CN(C)C(=O)c2ccc(C(=N)N)cc2)cc1OCC(=O)OC(C)C"
  IC50 (nM): 900
- Smi: "CCOC(=O)COC1CCN(C(=O)[C@H](C)NC(=O)c2ccc(C(=N)N)cc2)CC1"
  IC50 (nM): 163
- Smi: "CCOC(=O)COC1CCN(C(=O)[C@H](Cc2ccc(O)cc2)NC(=O)c2ccc(C(=N)N)cc2)CC1"
  IC50 (nM): 51

# evaluate next
Incoming: For the record CCOC(=O)NC(=N)c1ccc(C(=O)N[C@@H](Cc2ccc(O)cc2)C(=O)N2CCC(OCC(=O)O)CC2)cc1 , what value of IC50 is listed for Integrin alpha-IIb/beta-3 (Homo sapiens, UniProt P05106+P08514)?
Outgoing: 90

----------
Assign ED50 to each entry below.
organism: Homo sapiens; test: Inhibition of platelet aggregation of human platelet rich plasma(h-PRP) induced by adenosine 5-diphosphate (ADP).(oral activity in mice); assay type: functional; conditions: read-out: ID50 (the source's name)
Numbers only, in mg/kg.

Sample records with ED50:
- Compound: "CCOC(=O)NC(=N)c1ccc(C(=O)N(C)CC(=O)c2ccc(OCC(=O)OC(C)C)c(OCC(=O)OC(C)C)c2)cc1"
  ED50 (mg/kg): 1.4
- Compound: "CCOC(=O)COC1CCN(C(=O)[C@H](Cc2ccc(O)cc2)NC(=O)c2ccc(C(=N)NO)cc2)CC1"
  ED50 (mg/kg): 2.6
- Compound: "C[C@H](NC(=O)c1ccc(C(=N)NO)cc1)C(=O)N1CCC(OCC(=O)O)CC1"
  ED50 (mg/kg): 5.1

# evaluate next
Incoming: Which ED50 value belongs to CC(C)OC(=O)OC(C)OC(=O)COC1CCN(C(=O)[C@H](C)NC(=O)c2ccc(C(=N)NO)cc2)CC1 (some centres undefined) ?
Outgoing: 0.34

----------
Assign pIC50 to each entry below.
biological target: Integrin alpha-IIb/beta-3 (Homo sapiens, UniProt P05106+P08514); test: Inhibition of FG binding to alpha IIb beta-3 integrin
pIC50: −log10 of the molar value.

Sample records with pIC50:
- Smi: "CCOC(=O)NC(=N)c1ccc(C(=O)N(C)CC(=O)c2ccc(OCC(=O)OC(C)C)c(OCC(=O)OC(C)C)c2)cc1"
  pIC50: "< 5.00"
- Smi: "CCCCOC(=O)NC(=N)c1ccc(C(=O)N[C@@H](C)C(=O)N2CCC(OCC(=O)OCC)CC2)cc1"
  pIC50: "< 5.00"
- Smi: "COC(=O)COc1ccc(C(=O)CN(C)C(=O)c2ccc(C(=N)NO)cc2)cc1OCC(=O)OC"
  pIC50: "< 5.00"

Incoming: Which pIC50 value belongs to CCOC(=O)COC1CCN(C(=O)[C@H](Cc2ccc(O)cc2)NC(=O)c2ccc(C(N)=NC(=O)OCC)cc2)CC1 ?
Outgoing: < 5.10

----------
Assign pIC50 to each entry below.
target: Integrin alpha-IIb/beta-3 (Homo sapiens, UniProt P05106+P08514); test: Inhibition of FG binding to alpha IIb beta-3 integrin
pIC50: −log10 of the molar value.

Sample records with pIC50:
- Compound: "CC(C)OC(=O)OC(C)OC(=O)COC1CCN(C(=O)[C@H](C)NC(=O)c2ccc(C(=N)NO)cc2)CC1 (stereo partly drawn)"
  pIC50: "< 5.00"
- Compound: "CCOC(=O)COC1CCN(C(=O)[C@H](Cc2ccc(O)cc2)NC(=O)c2ccc(C(=N)NO)cc2)CC1"
  pIC50: "< 5.00"

# evaluate next
Incoming: For the record CCOC(=O)NC(=N)c1ccc(C(=O)N[C@@H](Cc2ccc(OC(C)=O)cc2)C(=O)N2CCC(OCC(=O)OC(C)C)CC2)cc1 , what value of pIC50 is listed for Integrin alpha-IIb/beta-3 (Homo sapiens, UniProt P05106+P08514)?
Outgoing: < 5.00
